- experimental_system: UniProt Q13464
- Sequence (Q13464 whole entry): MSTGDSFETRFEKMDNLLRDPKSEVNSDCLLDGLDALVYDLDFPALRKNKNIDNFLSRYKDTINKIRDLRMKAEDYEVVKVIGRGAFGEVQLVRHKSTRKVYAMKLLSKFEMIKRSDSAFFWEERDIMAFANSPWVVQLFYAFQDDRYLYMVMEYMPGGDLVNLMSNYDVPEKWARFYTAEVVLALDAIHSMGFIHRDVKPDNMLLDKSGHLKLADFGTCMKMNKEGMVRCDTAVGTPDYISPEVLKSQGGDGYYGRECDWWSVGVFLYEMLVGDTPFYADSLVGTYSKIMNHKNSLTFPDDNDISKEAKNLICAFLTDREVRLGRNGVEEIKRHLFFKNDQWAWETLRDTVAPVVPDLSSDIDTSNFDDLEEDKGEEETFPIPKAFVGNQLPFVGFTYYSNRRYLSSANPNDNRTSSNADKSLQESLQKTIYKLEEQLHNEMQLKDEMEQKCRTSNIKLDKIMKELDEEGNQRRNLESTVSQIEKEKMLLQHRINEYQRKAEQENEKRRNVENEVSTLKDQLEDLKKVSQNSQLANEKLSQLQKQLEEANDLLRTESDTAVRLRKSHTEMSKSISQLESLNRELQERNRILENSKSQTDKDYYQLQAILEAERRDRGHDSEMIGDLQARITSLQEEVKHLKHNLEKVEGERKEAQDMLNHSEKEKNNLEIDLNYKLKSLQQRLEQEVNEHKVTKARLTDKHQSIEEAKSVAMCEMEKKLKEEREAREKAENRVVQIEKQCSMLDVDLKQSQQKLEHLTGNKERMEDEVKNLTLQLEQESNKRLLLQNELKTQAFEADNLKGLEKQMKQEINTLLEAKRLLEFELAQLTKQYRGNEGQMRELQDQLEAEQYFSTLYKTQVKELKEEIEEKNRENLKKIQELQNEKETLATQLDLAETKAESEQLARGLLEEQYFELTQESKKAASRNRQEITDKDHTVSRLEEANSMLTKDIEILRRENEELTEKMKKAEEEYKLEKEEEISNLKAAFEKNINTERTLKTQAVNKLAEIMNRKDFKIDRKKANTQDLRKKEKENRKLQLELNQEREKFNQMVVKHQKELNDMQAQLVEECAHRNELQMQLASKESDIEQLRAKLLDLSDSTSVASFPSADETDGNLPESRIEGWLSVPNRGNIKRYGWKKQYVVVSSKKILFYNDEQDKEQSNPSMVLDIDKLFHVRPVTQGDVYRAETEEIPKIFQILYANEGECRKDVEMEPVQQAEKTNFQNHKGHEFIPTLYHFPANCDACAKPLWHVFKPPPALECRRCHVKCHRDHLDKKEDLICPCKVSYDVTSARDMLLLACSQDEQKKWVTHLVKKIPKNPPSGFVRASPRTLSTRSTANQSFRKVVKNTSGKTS
- experiment: Z-lyte FRET assay to measure kinase inhibition, ROCK1
- Type: biochemical
- run_parameters: read-out: ROCK1 IC50
measured_attribute: IC50 (µM)
API: value field is a number in µM; no unit string.

Give the reported value of IC50 for this record: COc1cccc([C@H](C)NC(=O)c2cccc3c2ccn3-c2ccnc(N)n2)c1
1.38

Look up and report measured IC50 for this entry: Nc1nccc(-n2ccc3c(C(=O)NCc4cccc(F)c4)cccc32)n1
2.7

Read the entry Nc1nccc(N2CCc3cc(Cl)ccc32)n1 and write its reported IC50.
1.5

For NS(=O)(=O)c1ccc(Nc2ncnc3nc[nH]c23)cc1 , write its IC50.
42.7

Please report IC50 for the following compound: Nc1nccc(N2CCc3cc(F)ccc32)n1
1.2

// provenance: patent US9616064B2
